Experiment: Toxicity liver stage against HepG2, at 10uM
Assay type: cell-based
Parameters: test concentration 10 uM, cell line HepG2-A16-CD81EGFP
Details: human, HepG2-A16-CD81EGFP cells; read-out: INHIBITION
cytotoxicity at 10 µM by entry:
The figure you give is taken to be in %; do not add the unit.

Illustrative cases are given below, each with its answer.
INSERT INTO measurements (compound, reported) VALUES
  ('CCS(=O)(=O)N1CCOC2(CCCN(Cc3ccccn3)C2)C1 (stereo not given)', 5.86),
  ('Cn1cc(CN2CC[C@@H]3[C@@H](CCC(=O)N3CCc3c[nH]cn3)C2)cn1', -9.73),
  ('CN(Cc1ccco1)[C@@H]1CN(C(=O)c2ccnnc2)[C@@H]2CCCO[C@H]12', -7.93);

The reported cytotoxicity at 10 µM of the compound "Cc1ccoc1C1=NNC(=CN2CCn3c(nnc3C(C)C)C2)O1" was -13.1

The reported cytotoxicity at 10 µM of the compound "Cc1cnc(C)c(-c2cccc(-c3ccn(CCN4CCCC4)n3)c2)n1" was -10.5

====

Test: Toxicity liver stage against HepG2, at 10uM
Assay type: cell-based
Set-up: test concentration 10 uM, cell line HepG2-A16-CD81EGFP
Details: human, HepG2-A16-CD81EGFP cells; read-out: INHIBITION
VALUE_KIND: cytotoxicity at 10 µM (%)
The figure you give is taken to be in %; do not add the unit.

Illustrative cases are given below, each with its answer.
INSERT INTO results (molecule, value_kind, reported) VALUES
  ('CC(C)c1noc(C2CCCN2S(=O)(=O)N2CCCCCC2)n1 (stereo unspecified)', 'cytotoxicity at 10 µM', 4.73),
  ('Cn1cc(CN2CC[C@@H]3[C@@H](CCC(=O)N3CCc3ccccc3)C2)cn1', 'cytotoxicity at 10 µM', -1.45),
  ('Cc1nocc1C(=O)N1CCOC2(COCCN(CC3CC3)C2)C1 (stereo unspecified)', 'cytotoxicity at 10 µM', 3.42),
  ('OC1CCN(Cc2c(-c3ccco3)[nH]c3ncccc23)CC1', 'cytotoxicity at 10 µM', -1.58),
  ('Cc1csc2ncc(-c3ccnc(N4CCC[C@@H]4CO)n3)c(=O)n12', 'cytotoxicity at 10 µM', -11.3);

The reported cytotoxicity at 10 µM of the molecule N#Cc1ccc(CNC(=O)NC2CCCN(c3ncccn3)C2)cc1 (stereo unspecified) was 5.38

The reported cytotoxicity at 10 µM of the molecule "COCCC(=O)N1CCC2(CN(Cc3ccc(OC)c(F)c3)C2)C1" was -10.4

The reported cytotoxicity at 10 µM of the molecule Cc1nc(CN(C)C2CCN(Cc3ccc(Cl)s3)C2)no1 (stereo unspecified) was -2.84

The reported cytotoxicity at 10 µM of the molecule COCC1CC2(CCN(Cc3ccccn3)CC2)CN1c1ncccn1 (stereo unspecified) was 14.4

The reported cytotoxicity at 10 µM of the molecule O=C(CC1CCCCC1)NC1CCCCNC1=O (stereo unspecified) was 6.82

The reported cytotoxicity at 10 µM of the molecule "CNC(=O)[C@H]1C[C@@H]2CN(S(=O)(=O)Cc3ccccc3)C[C@@H]2N1C" was -5.06

====

Assay: Toxicity liver stage against HepG2, at 10uM
Type: cell-based
Parameters: test concentration 10 uM, cell line HepG2-A16-CD81EGFP
Settings: human, HepG2-A16-CD81EGFP cells; read-out: INHIBITION
VALUE_KIND: cytotoxicity at 10 µM (%)
The figure you give is taken to be in %; do not add the unit.

Illustrative cases are given below, each with its answer.
INSERT INTO results (compound, value_kind, reported) VALUES
  ('Cc1cc(-c2cc3nc(C)c(C)c(NCC4COCCO4)n3n2)no1 (stereo unspecified)', 'cytotoxicity at 10 µM', 8.97),
  ('O=C1COc2ccc(S(=O)(=O)NC3CC3)c3c2N1CCC3', 'cytotoxicity at 10 µM', -16.7);

The reported cytotoxicity at 10 µM of the compound "CN(C)S(=O)(=O)N1C[C@@H]2C[C@H](C(=O)Nc3ccccc3)[C@H](C1)O2" was 5.86

The reported cytotoxicity at 10 µM of the compound Cc1cc(C[S+]([O-])CC(=O)Nc2c(C)cccc2C)no1 (stereo unspecified) was -9.65

The reported cytotoxicity at 10 µM of the compound "O=C(Cc1ccsc1)N1Cc2nc(CN3CCCCC3)oc2C1" was 7.19

The reported cytotoxicity at 10 µM of the compound "Cn1cncc1CN1CCc2nc3sccc3c(=O)n2CC1" was -3.75

The reported cytotoxicity at 10 µM of the compound CCOC(C)c1nc(CN2CCN(c3ncc(C)cn3)CC2)cs1 (stereo unspecified) was -0.509

The reported cytotoxicity at 10 µM of the compound "Cc1csc2c(C3CCN(C(=O)Cn4cncn4)CC3)nc(C)n12" was 6.28

The reported cytotoxicity at 10 µM of the compound Cc1cc(-c2ccccc2C(=O)O)nc(C2CCCCN2C)n1 (stereo unspecified) was -0.168

The reported cytotoxicity at 10 µM of the compound COc1ccc(Cl)cc1CC(=O)N1CCN(CC(C)O)CC1 (stereo unspecified) was -17.1

The reported cytotoxicity at 10 µM of the compound "Cc1ccc2c(CC(=O)N(C)CCN(C)C)c(C)[nH]c2c1C" was 8.42
